Value source: PubChem BioAssay (NCATS)

Test system: CP269
Assay notes: qHTS profiling for inhibitors of Plasmodium falciparum proliferation (AID 504749); further: nearly all actives have a fitted effect of over 60% in size
Details: P. falciparum in erythrocytes, SYBR Green DNA, 72 h; series mostly up to 28.7 µM
Inconclusive results are not listed. The source made the active and inactive calls. The call rests on the fitted dose curve; in most records, active means well fitted inhibition curve with a large enough effect; inconclusive means small, poorly fitted or top-dose-only effect; inactive means flat fitted curve, though single readings scatter. Numbered stars: 1 amine (or outer) side, 2 acyl side, 3 side chain; on linkers, the order of the positions; unused ones are H or OH. Bridge positions count the residues as written; N and C are the ends. Square brackets hold non-standard residues; d marks the D form. Peptide text beside a SMILES is read from it. * marks the point of attachment. ξ: configuration not given here. ΔAla(Z-3-ureido) = NC(=O)N/C=C(\N)C(=O)O; ξDab(CH2SO3H) = NC(CCNCS(=O)(=O)O)C(=O)O; X2 = NC1=NC(O)CC(C(N[*:1])C(=O)[*:2])N1; Heptanoyl(6-Me) = CC(C)CCCCC(=O)*; ξβ3hOrn = NCCCC(N)CC(=O)*; Orn = NCCC[CH](N)C(=O)O; Dab = NCC[CH](N)C(=O)O; Dap = NC[CH](N)C(=O)O
Log the outcome using a class from 1 (yes) for active, 0 (no) for inactive

Identify the outcome logged in this assay for the compound shown: CC(=O)OCC(=O)[C@@]1(O)CCC2C3CCC4=CC(=O)CC[C@]4(C)C3=CC[C@@]21C (stereo partly drawn)
0 (no)

Entry CCC(C)C1NC(=O)C(CCNCS(=O)(=O)O)NC(=O)C(NC(=O)C(CCNCS(=O)(=O)O)NC(=O)C(NC(=O)C(CCNCS(=O)(=O)O)NC(=O)CCCCC(C)C)C(C)O)CCNC(=O)C(C(C)O)NC(=O)C(CCNCS(=O)(=O)O)NC(=O)C(CCNCS(=O)(=O)O)NC(=O)C(C(C)CC)NC1=O (stereo not drawn) ({Heptanoyl(6-Me)}-[ξDab(CH2SO3H)]T[ξDab(CH2SO3H)][Dab][ξDab(CH2SO3H)]II[ξDab(CH2SO3H)][ξDab(CH2SO3H)]T; lactam 4-C; configuration not given here) please
0 (no)

Entry CNCC(=O)NC(CCCN=C(N)N)C(=O)NC(C(=O)NC(Cc1ccc(O)cc1)C(=O)NC(C(=O)NC(Cc1cnc[nH]1)C(=O)N1CCCC1C(=O)NC(C)C(=O)O)C(C)C)C(C)C (stereo not drawn) please
0 (no)

Entry CC(N)C(=O)NCC(=O)NC1CSSCC(C(=O)O)NC(=O)C(CO)NC(=O)C(C(C)O)NC(=O)C(Cc2ccccc2)NC(=O)C(C(C)O)NC(=O)C(CCCCN)NC(=O)C(Cc2c[nH]c3ccccc23)NC(=O)C(Cc2ccccc2)NC(=O)C(Cc2ccccc2)NC(=O)C(CC(N)=O)NC(=O)C(CCCCN)NC1=O (stereo not drawn) please
0 (no)

Entry NCCCC(N)CC(=O)NC1CNC(=O)C(C2CC(O)N=C(N)N2)NC(=O)/C(=C/NC(N)=O)NC(=O)C(CO)NC(=O)C(CO)NC1=O (stereo not drawn) (ξβ3hOrn-[Dap]SS[ΔAla(Z-3-ureido)][X2]; lactam 1-C; configuration not given here) please
0 (no)

Entry CC(C)CC1NC(=O)C(CCCN)NC(=O)C(C(C)C)NC(=O)C2CCCN2C(=O)C(Cc2ccccc2)NC(=O)C(CC(C)C)NC(=O)C(CCCN)NC(=O)C(C(C)C)NC(=O)C2CCCN2C(=O)C(Cc2ccccc2)NC1=O (stereo not drawn) (cyclo(FPV[Orn]LFPV[Orn]L); configuration not given here) please
1 (yes)

Entry NC(=O)CCC1NC(=O)C(Cc2ccccc2)NC(=O)C(Cc2ccc(O)cc2)NC(=O)CCSSCC(C(=O)N2CCCC2C(=O)NC(CCCN=C(N)N)C(=O)NCC(N)=O)NC(=O)C(CC(N)=O)NC1=O (stereo not drawn) please
0 (no)

Entry `Cn1cc(O)nc1NC(=O)Nc1cccc(Cl)c1` please
0 (no)
